Each entry below carries its recorded Maximum inhibition rate %; hIL36αβγ; IL-8 production.
Target: T1, IL-36R naturally expressed on OVCAR8 cells and on normal human epidermal keratinocytes (NHK cells) (human, UniProt Q9HB29 20-575)
T1 sequence (looked up): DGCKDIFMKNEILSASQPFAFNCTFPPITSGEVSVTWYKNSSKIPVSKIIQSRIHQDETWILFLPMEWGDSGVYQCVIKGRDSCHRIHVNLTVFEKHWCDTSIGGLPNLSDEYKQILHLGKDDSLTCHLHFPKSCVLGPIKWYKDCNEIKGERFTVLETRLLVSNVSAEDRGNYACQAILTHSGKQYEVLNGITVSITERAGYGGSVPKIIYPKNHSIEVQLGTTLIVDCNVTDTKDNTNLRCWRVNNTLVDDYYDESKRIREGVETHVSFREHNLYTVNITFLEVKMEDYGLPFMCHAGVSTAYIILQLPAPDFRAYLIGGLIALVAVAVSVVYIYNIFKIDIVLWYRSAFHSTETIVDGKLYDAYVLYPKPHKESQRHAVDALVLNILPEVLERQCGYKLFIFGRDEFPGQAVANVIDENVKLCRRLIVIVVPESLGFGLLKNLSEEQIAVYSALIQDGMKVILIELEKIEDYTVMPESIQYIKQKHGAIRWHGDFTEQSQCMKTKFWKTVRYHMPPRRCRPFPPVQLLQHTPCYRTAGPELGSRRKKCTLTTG
Assay: cell-based or functional assay
Just the number please, in %, no unit attached.

Would you please look over these solved cases?
# input binder: hz84C4-2.2 (antibody, human IgG4 S228P, kappa, V domains shown, Humanized, human IgG4 / kappa) VH: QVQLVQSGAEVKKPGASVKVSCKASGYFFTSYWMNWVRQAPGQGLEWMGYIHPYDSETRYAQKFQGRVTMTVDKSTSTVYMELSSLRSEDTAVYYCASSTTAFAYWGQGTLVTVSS VL: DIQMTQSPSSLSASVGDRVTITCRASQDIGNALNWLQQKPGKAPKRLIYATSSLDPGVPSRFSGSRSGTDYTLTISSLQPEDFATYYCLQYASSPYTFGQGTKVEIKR ; wanted: its Maximum inhibition rate %; hIL36αβγ; IL-8 production 99.2

# input binder: hz84C4-2.1 (antibody, human IgG4 S228P, kappa, V domains shown, Humanized, human IgG4 / kappa) VH: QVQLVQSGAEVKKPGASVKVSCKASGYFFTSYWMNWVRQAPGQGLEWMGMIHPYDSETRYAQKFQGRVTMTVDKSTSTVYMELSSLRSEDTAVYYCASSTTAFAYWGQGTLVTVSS VL: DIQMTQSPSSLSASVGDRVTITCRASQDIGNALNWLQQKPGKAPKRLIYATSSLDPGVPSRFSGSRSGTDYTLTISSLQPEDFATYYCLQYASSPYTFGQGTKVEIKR ; wanted: its Maximum inhibition rate %; hIL36αβγ; IL-8 production 99.9

---
# input binder: hz84C4-1.2 (antibody, human IgG4 S228P, kappa, V domains shown, Humanized, human IgG4 / kappa) VH: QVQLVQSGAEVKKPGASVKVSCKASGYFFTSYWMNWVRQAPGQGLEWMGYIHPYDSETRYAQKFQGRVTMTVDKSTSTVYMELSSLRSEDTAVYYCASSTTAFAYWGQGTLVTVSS VL: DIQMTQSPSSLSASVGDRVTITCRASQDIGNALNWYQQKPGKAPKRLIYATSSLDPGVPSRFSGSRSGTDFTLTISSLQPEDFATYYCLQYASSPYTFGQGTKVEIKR ; wanted: its Maximum inhibition rate %; hIL36αβγ; IL-8 production 99.2

# input binder: hz84C4-1.4 (antibody, human IgG4 S228P, kappa, V domains shown, Humanized, human IgG4 / kappa) VH: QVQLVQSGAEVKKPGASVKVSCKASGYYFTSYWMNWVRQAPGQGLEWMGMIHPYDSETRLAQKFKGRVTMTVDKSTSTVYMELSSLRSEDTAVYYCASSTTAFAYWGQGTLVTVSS VL: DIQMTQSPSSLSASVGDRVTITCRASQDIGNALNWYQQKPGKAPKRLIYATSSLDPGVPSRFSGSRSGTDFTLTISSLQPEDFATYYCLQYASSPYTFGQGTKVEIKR ; wanted: its Maximum inhibition rate %; hIL36αβγ; IL-8 production 98.9
